- System: 926638-142-R-J1-PDC complex spheroid viability;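 note: spheroids exposed to drugs for one week before readout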
- method.description: Anticancer human tumor 926638-142-R-J1-PDC patient-derived endometrial carcinoma cell line growth inhibition [POLQ]
- study.conditions: second compound 0.0316 µM; first compound 1 µM; stronger effect = lower value
Response field label: string, one of criterion met (viability, T/C strictly below 80%) or criterion not met.

CC1COCCN1c1cc(-c2ccnn2C)c2ccnc(-c3ccn[nH]3)c2n1 (stereo not given) + Nc1ccc(C#CCN(C(=O)Cc2ncc(C(F)(F)F)cc2C(F)(F)F)c2ccc(F)cc2)nn1 ... criterion met
O=C(Nc1ccc(O)c(NS(=O)(=O)c2ccc(F)cc2)c1)c1ccc(-c2ccccc2)cc1 + Cc1cccc(N(C)C(=O)C2C(O)CCN2c2nc(C)cc(C(F)(F)F)c2C#N)c1 ... criterion not met

Hello, I'm reviewing records and need to know if viability, T/C of C=CC(=O)N1CCN(c2nc(=O)n(-c3c(C)ccnc3C(C)C)c3nc(-c4c(O)cccc4F)c(F)cc23)C(C)C1 (stereo not given) + Cc1cccc(N(C)C(=O)C2C(O)CCN2c2nc(C)cc(C(F)(F)F)c2C#N)c1 is below 80%. Could you check?
criterion met

Hello, I'm reviewing records and need to know if viability, T/C of CC1COCCN1c1cc(C2(O)CC3CCC(C2)O3)c2cnn(-c3ccn[nH]3)c2n1 (stereo not given) + COC1C(OC(N)=O)C(O)C(Oc2ccc3c(O)c(NC(=O)c4ccc(O)c(CC=C(C)C)c4)c(=O)oc3c2C)OC1(C)C is below 80%. Could you check?
criterion met

Hello, I'm reviewing records and need to know if viability, T/C of CCCS(=O)(=O)Nc1ccc(F)c(C(=O)c2c[nH]c3ncc(-c4ccc(Cl)cc4)cc23)c1F + Cc1cccc(N(C)C(=O)C2C(O)CCN2c2nc(C)cc(C(F)(F)F)c2C#N)c1 is below 80%. Could you check?
criterion not met

Provenance of the data: PubChem BioAssay AID1963826
